Please respond with reported pIC50 for every item in the list.
- targetOfAssay: HBV core protein (UniProt P03146)
- Sequence (P03146 whole entry, looked up): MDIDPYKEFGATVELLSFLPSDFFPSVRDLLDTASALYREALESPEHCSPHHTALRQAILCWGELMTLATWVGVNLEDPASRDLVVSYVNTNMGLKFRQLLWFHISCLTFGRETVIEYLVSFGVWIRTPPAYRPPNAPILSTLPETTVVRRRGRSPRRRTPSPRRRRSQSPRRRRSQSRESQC
- Type: biochemical
- experimentalParameters: read-out: Assembly Activity (IC50); BODIPY-FL labelled core protein, assembly started with NaCl, read after 6 min
pIC50: −log10 of the molar value.

query: Any idea what pIC50 was measured for O=C(c1cc2c(C(F)F)cccc2[nH]1)N1CCc2nc(NCC3(O)CCC3)sc2C1 ?
result: > 5.30

query: Any idea what pIC50 was measured for O=C(c1cc2c(F)cc(F)cc2[nH]1)N1CCc2nc(NCC3(CO)CC3)sc2C1 ?
result: > 5.30

query: Any idea what pIC50 was measured for O=C(c1cc2c(Cl)c(F)ccc2[nH]1)N1CCc2nc(NCC3(CO)CC3)sc2C1 ?
result: > 5.30

query: Any idea what pIC50 was measured for CNC(=O)C1(CNc2nc3c(s2)CN(C(=O)c2cc4ccccc4[nH]2)CC3)CCC1 ?
result: > 5.30

query: Any idea what pIC50 was measured for O=C(c1cc2c(F)c(F)ccc2[nH]1)N1CCc2nc(NCC3CCOC3)sc2C1 (centres unmarked) ?
result: > 5.30

query: Any idea what pIC50 was measured for CC(F)(F)c1cc(F)cc2[nH]c(C(=O)N3CCc4nc(N)sc4C3)cc12 ?
result: > 5.30

query: Any idea what pIC50 was measured for CC(C)(C)CC(=O)Nc1nc2c(s1)CN(C(=O)c1cc3c(Cl)cccc3[nH]1)CC2 ?
result: 5.00 to 5.30

query: Any idea what pIC50 was measured for O=C(c1cc2c(Cl)ccc(F)c2[nH]1)N1CCc2nc(NCC3CCOC3)sc2C1 (centres unmarked) ?
result: 5.00 to 5.30

query: Any idea what pIC50 was measured for Nc1nc2c(s1)CN(C(=O)c1cc3c(Cl)cccc3[nH]1)CC2 ?
result: > 5.30

query: Any idea what pIC50 was measured for NC(=O)CNc1nc2c(s1)CN(C(=O)c1cc3ccccc3[nH]1)CC2 ?
result: > 4.00

query: Any idea what pIC50 was measured for CCOCC(=O)Nc1nc2c(s1)CN(C(=O)c1cc3ccccc3[nH]1)CC2 ?
result: > 5.30

query: Any idea what pIC50 was measured for Nc1nc2c(s1)CN(C(=O)c1cc3c(C4CC4)cccc3[nH]1)CC2 ?
result: 5.00 to 5.30

query: Any idea what pIC50 was measured for Nc1nc2c(s1)CN(C(=O)c1cc3c(Cl)cc(Cl)cc3[nH]1)CC2 ?
result: > 5.30

query: Any idea what pIC50 was measured for N#Cc1nc2c(s1)CN(C(=O)c1cc3ccccc3[nH]1)CC2 ?
result: > 4.00

query: Any idea what pIC50 was measured for CC(C)c1cccc2[nH]c(C(=O)N3CCc4nc(N)sc4C3)cc12 ?
result: > 5.30

query: Any idea what pIC50 was measured for O=C(c1cc2ccccc2[nH]1)N1CCc2nc(NCCc3c[nH]cn3)sc2C1 ?
result: > 5.30

query: Any idea what pIC50 was measured for O=C(c1cc2c(F)c(F)ccc2[nH]1)N1CCc2nc(NCC3(CO)CC3)sc2C1 ?
result: > 5.30

====

- targetOfAssay: HBV core protein (UniProt P03146)
- Assay type: biochemical
- experimentalParameters: read-out: Assembly Activity (IC50); BODIPY-FL labelled core protein, assembly started with NaCl, read after 6 min
quantity: IC50

query: Any idea what IC50 was measured for Cc1nc2c(s1)CN(C(=O)c1cc3c(Cl)cc(Cl)cc3[nH]1)CC2 ?
result: 5 to 10 µM

query: Any idea what IC50 was measured for O=C(c1cc2c(CO)cccc2[nH]1)N1CCc2nc(NCC3CCOC3)sc2C1 (centres unmarked) ?
result: < 100 µM

query: Any idea what IC50 was measured for Cc1cccc2[nH]c(C(=O)N3CCc4nc(NC5CCOC5)sc4C3)cc12 (centres unmarked) ?
result: < 5 µM

query: Any idea what IC50 was measured for COC(=O)[C@@H]1C[C@H](Nc2nc3c(s2)CN(C(=O)c2cc4ccccc4[nH]2)CC3)CN1 ?
result: < 5 µM

query: Any idea what IC50 was measured for CN(C)c1nc2c(s1)CN(C(=O)c1cc3c(F)ccc(F)c3[nH]1)CC2 ?
result: < 100 µM

query: Any idea what IC50 was measured for Cc1nc2c(s1)CN(C(=O)c1cc3cccc(Cl)c3[nH]1)CC2 ?
result: 5 to 10 µM

query: Any idea what IC50 was measured for COCC1(CNc2nc3c(s2)CN(C(=O)c2cc4ccccc4[nH]2)CC3)CC1 ?
result: < 5 µM

query: Any idea what IC50 was measured for Nc1nc2c(s1)CN(C(=O)c1cc3cc(F)c(F)cc3[nH]1)CC2 ?
result: < 5 µM

query: Any idea what IC50 was measured for Nc1nc2c(s1)CN(C(=O)c1cc3c(C(F)(F)F)cccc3[nH]1)CC2 ?
result: < 5 µM

query: Any idea what IC50 was measured for O=C(c1cc2ccccc2[nH]1)N1CCc2nc(NCCN3CCOCC3)sc2C1 ?
result: 5 to 10 µM

query: Any idea what IC50 was measured for CCC(C)(CO)CNc1nc2c(s1)CN(C(=O)c1cc3ccccc3[nH]1)CC2 (centres unmarked) ?
result: 5 to 10 µM

query: Any idea what IC50 was measured for Cc1nc2c(s1)CN(C(=O)c1cc3c(C)cc(F)cc3[nH]1)CC2 ?
result: < 5 µM

query: Any idea what IC50 was measured for O=C(c1cc2ccccc2[nH]1)N1CCc2nc(CO)sc2C1 ?
result: 5 to 10 µM

query: Any idea what IC50 was measured for O=C(c1cc2ccccc2[nH]1)N1CCc2nc(NC3CCC3)sc2C1 ?
result: < 5 µM

query: Any idea what IC50 was measured for COCCC(=O)Nc1nc2c(s1)CN(C(=O)c1cc3ccccc3[nH]1)CC2 ?
result: < 5 µM

query: Any idea what IC50 was measured for O=C(c1cc2ccccc2[nH]1)N1CCc2nc(NC3CC(CO)(CO)C3)sc2C1 ?
result: < 5 µM

query: Any idea what IC50 was measured for Nc1nc2c(s1)CN(C(=O)c1cc3cc(Cl)c(Cl)cc3[nH]1)CC2 ?
result: 5 to 10 µM

query: Any idea what IC50 was measured for CC(O)c1cc(F)cc2[nH]c(C(=O)N3CCc4nc(NCC5CCOC5)sc4C3)cc12 (centres unmarked) ?
result: < 100 µM

query: Any idea what IC50 was measured for CCc1cccc2[nH]c(C(=O)N3CCc4nc(NC(=O)C5(C)CC5)sc4C3)cc12 ?
result: < 5 µM

query: Any idea what IC50 was measured for O=C(c1cc2ccccc2[nH]1)N1CCc2nc(NCCCO)sc2C1 ?
result: < 5 µM

query: Any idea what IC50 was measured for Cc1nc2c(s1)CN(C(=O)c1cc3cc(Cl)ccc3[nH]1)CC2 ?
result: 5 to 10 µM

query: Any idea what IC50 was measured for O=C(c1cc2ccccc2[nH]1)N1CCc2nc(N3CC4COCCN4C3)sc2C1 (centres unmarked) ?
result: < 100 µM

query: Any idea what IC50 was measured for O=C(c1cc2ccc(Cl)cc2[nH]1)N1CCc2nc(NC3(CO)CCC3)sc2C1 ?
result: < 5 µM

query: Any idea what IC50 was measured for O=C(c1cc2ccccc2[nH]1)N1CCc2nc(CNC3CCOC3)sc2C1 (centres unmarked) ?
result: 5 to 10 µM

query: Any idea what IC50 was measured for O=C(c1cc2c(F)c(F)ccc2[nH]1)N1CCc2nc(NC3(CO)CCC3)sc2C1 ?
result: < 5 µM

query: Any idea what IC50 was measured for O=C(c1cc2ccccc2[nH]1)N1CCc2nc(NCC3(O)CC3)sc2C1 ?
result: < 5 µM

query: Any idea what IC50 was measured for O=C(c1cc2ccccc2[nH]1)N1CCc2nc(NCC(CO)CC3CCC3)sc2C1 (centres unmarked) ?
result: < 100 µM

query: Any idea what IC50 was measured for O=C(c1cc2ccccc2[nH]1)N1CCc2nc(N[C@@H]3CCCC[C@H]3O)sc2C1 ?
result: < 5 µM

query: Any idea what IC50 was measured for CC1(C)OCC(CNc2nc3c(s2)CN(C(=O)c2cc4ccccc4[nH]2)CC3)O1 (centres unmarked) ?
result: 5 to 10 µM

query: Any idea what IC50 was measured for Nc1nc2c(s1)CN(C(=O)c1cc3c(F)cccc3[nH]1)CC2 ?
result: 5 to 10 µM

query: Any idea what IC50 was measured for O=C(c1cc2c(F)ccc(F)c2[nH]1)N1CCc2nc(NC3CCOC3)sc2C1 (centres unmarked) ?
result: < 5 µM

query: Any idea what IC50 was measured for CN1CCC(C(=O)Nc2nc3c(s2)CN(C(=O)c2cc4ccccc4[nH]2)CC3)CC1 ?
result: < 5 µM

query: Any idea what IC50 was measured for CCNCc1nc2c(s1)CN(C(=O)c1cc3ccccc3[nH]1)CC2 ?
result: < 100 µM

query: Any idea what IC50 was measured for O=C(c1cc2c(CO)cccc2[nH]1)N1CCc2nc(NCC3(O)CCC3)sc2C1 ?
result: < 100 µM

query: Any idea what IC50 was measured for O=C(c1cc2ccccc2[nH]1)N1CCc2nc(N[C@H]3COCC[C@@H]3O)sc2C1 (racemic) ?
result: 5 to 10 µM
